Just for reference, patent US20100029542A1 is where these values come from.

target: glucose oxidase (Aspergillus niger, UniProt P13006); construct: purchased Biocatalysts G575P; experiment: Activity recovery of glucose oxidase in dry formulations following gamma irradiation; assay type: physicochemical; conditions: Table 5, singlet oxygen scavengers; glucose oxidase 350 μg mL^−1 prior to drying; dry; 25-40 kGy, ambient temperature
Sequence (P13006 17-605): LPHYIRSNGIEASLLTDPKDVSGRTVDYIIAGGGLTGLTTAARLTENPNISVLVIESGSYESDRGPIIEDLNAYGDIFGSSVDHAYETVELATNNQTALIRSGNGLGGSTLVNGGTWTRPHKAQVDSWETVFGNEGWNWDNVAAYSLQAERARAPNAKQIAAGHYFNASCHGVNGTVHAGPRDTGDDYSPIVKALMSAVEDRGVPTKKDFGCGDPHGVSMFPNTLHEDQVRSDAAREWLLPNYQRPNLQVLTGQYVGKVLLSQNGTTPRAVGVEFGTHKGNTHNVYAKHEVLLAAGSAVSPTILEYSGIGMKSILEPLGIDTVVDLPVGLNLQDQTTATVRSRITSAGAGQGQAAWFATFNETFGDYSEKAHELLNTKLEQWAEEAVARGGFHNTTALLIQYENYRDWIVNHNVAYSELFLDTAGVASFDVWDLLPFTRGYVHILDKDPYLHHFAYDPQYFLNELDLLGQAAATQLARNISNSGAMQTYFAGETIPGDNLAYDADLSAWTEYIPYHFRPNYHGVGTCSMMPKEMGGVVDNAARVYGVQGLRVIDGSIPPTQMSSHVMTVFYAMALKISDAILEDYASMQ
Property: Enzyme activity remaining after gamma-irradiation (%)
Response body: numeric value in %, unit text excluded.

Tell me the measured Enzyme activity remaining after gamma-irradiation of CSCC[C@H](N)C(=O)O , please. 61.3

Could you do the same for N[C@@H](Cc1c[nH]c2ccccc12)C(=O)O , please? 37.0

Query Cc1ncc(C[n+]2csc(CCO)c2C)c(N)n1 next 43.1

Ok, now C[C@H](N)C(=O)O 15.3

Moving on to N[C@@H](Cc1c[nH]cn1)C(=O)O 57.9
